test system: cervix carcinoma cell line KB3.1; test: In vitro cytotoxicity assay; assay type: cell-based; details: Homo sapiens, KB 3-1, - = no activity, read-out: Half inhibitory concentration (IC50)
Readout name: pIC50
Recall that pIC50 is obtained by taking minus log10 of the concentration measured in molar.

[
  {
    "Substance smiles": "O=c1cc(O)cc(/C=C/c2ccc(O)c(O)c2)o1",
    "Numeric value": 4.03
  },
  {
    "Substance smiles": "CC1=C(O)C(=O)C(c2c(C=O)c(O)c(O)c3c2[C@@H](C(C)C)CC[C@@H]3C)=C(O)C1=O",
    "Numeric value": 5.20
  }
]

Query: For the compound `CC(C)[C@H]1CC[C@H](C)c2c(O)c(O)c(C=O)c(C3=C(O)C(=O)C4=C(OCc5c(O)c(O)c6c(c54)[C@@H](C(C)C)CC[C@@H]6C)C3=O)c21` , give its measured pIC50 value.
Result: 4.51

Query: Return pIC50 (reported value) for this compound: `CC(C)[C@H]1CC[C@H](C)c2c(O)c(O)c(CO)c(C3=C(O)C(=O)C4=C(OCc5c(O)c(O)c6c(c54)[C@@H](C(C)C)CC[C@@H]6C)C3=O)c21`
Result: 4.56

Query: Give the reported pIC50 for this compound. `CC(C)[C@H]1CC[C@H](C)c2c(O)c(O)c3c(c21)C1=C(OC3)C(=O)C2=C(OCc3c(O)c(O)c4c(c32)[C@@H](C(C)C)CC[C@@H]4C)C1=O`
Result: 4.46

Query: Supply reported pIC50 belonging to this compound: `CC(C)[C@H]1CC[C@H](C)C2=C1C=C(C(=O)O)CC2`
Result: 4.07

Query: // fetch pIC50 given entry `Cc1c(O)c(O)c(C(C)C)c2c1CCC(C(=O)O)=C2`
Result: 4.50

---

test system: human prostate carcinoma cell line PC-3; assay: Extended cytotoxicity assay; assay type: cell-based; conditions: read-out: Half inhibitory concentration (IC50)
Readout name: pIC50
pIC50 field: float, defined as -log10 of concentration (mol/L).

Query: State pIC50 (human prostate carcinoma cell line PC-3) of CC1=C(O)C(=O)C(c2c(C=O)c(O)c(O)c3c2[C@@H](C(C)C)CC[C@@H]3C)=C(O)C1=O [compound 5, Heimiomycin D] .
Result: 4.52

---

tested on: human epidermoid carcinoma cell line A431; assay: Extended cytotoxicity assay; format: cell-based; conditions: A431; read-out: Half inhibitory concentration (IC50)
Readout name: pIC50
Scale: pIC50 equals -log10([C]), with [C] in mol/L.

Query: Indicate the recorded pIC50 value for this compound: `CC1=C(O)C(=O)C(c2c(C=O)c(O)c(O)c3c2[C@@H](C(C)C)CC[C@@H]3C)=C(O)C1=O`
Result: 5.37
